# Test method notes: Pharmacokinetics and oral bioavailability in mice
# Experimental conditions: male, ICR, mouse, plasma, po, 10 mg/kg
Exercise: for every item that follows, state its recorded bioavailability.
Provide only the numeric value, understood in %.

Request: Write down bioavailability measured for item CCc1cc(NC(=O)Nc2ccc(-c3cnc(Nc4cc(N5CCN(CCF)CC5)ncn4)s3)cc2)no1 [Compound 5]
Result: 67

Request: Provide measured bioavailability value, entry: CCc1cc(NC(=O)Nc2ccc(-c3cnc(Nc4cc(OCCN5CCOCC5)ncn4)s3)cc2)no1 [Compound 3]
Result: 96

====

# Test method notes: in vivo
# Experimental conditions: male, ICR, mouse, po, 10 mg/kg
Measured attribute: bioavailability (%)
Numeric answer only, unit % assumed.

Request: Give me measured bioavailability, please, for this compound: "CCc1cc(NC(=O)Nc2ccc(-c3cnc(Nc4cc(N5CCN(CCF)CC5)nc(C)n4)s3)cc2)no1"
Result: 89

====

# System: xenografts colo205 nude mice
# Test method notes: In vivo toxicity study, colo205 model
# Experimental conditions: PO once daily, Compounds 1, 2, 3, 4, 6 at 50, 50, 100, 150 and 25 mg/kg
Measured attribute: Tolerability

Field: example entries. Status: answers known.
| Molecule | Tolerability |
| --- | --- |
| CCc1cc(NC(=O)Nc2ccc(-c3cnc(Nc4cc(N5CCN(CCO)CC5)nc(C)n4)s3)cc2)no1 [Compound 1] | well tolerated |
| CCc1cc(NC(=O)Nc2ccc(-c3cnc(Nc4cc(OCCN5CCOCC5)ncn4)s3)cc2)no1 [Compound 3] | well tolerated |
| CCc1cc(NC(=O)Nc2ccc(-c3cnc(Nc4cc(N5CCN(CCF)CC5)nc(C)n4)s3)cc2)no1 [Compound 6] | well tolerated |
| CCc1cc(NC(=O)Nc2ccc(-c3cnc(Nc4cc(N5CCN(CC)CC5)ncn4)s3)cc2)no1 [Compound 2] | well tolerated |

Next:
Request: Fill in Tolerability for record CCc1cc(NC(=O)Nc2ccc(-c3cnc(Nc4cc(N5CCN(CCO)CC5)ncn4)s3)cc2)no1 [Compound 4]
Result: well tolerated

====

# Test method notes: in vivo
# Experimental conditions: male, ICR, mouse, iv, 2 mg/kg
Measured attribute: AUC(0-inf) (ng·h/mL)
Could you give me the number in ng·h/mL? Just the number is fine.

Request: State its AUC(0-inf): CCc1cc(NC(=O)Nc2ccc(-c3cnc(Nc4cc(N5CCN(CCF)CC5)nc(C)n4)s3)cc2)no1 [Compound 6]
Result: 1840

====

Measured attribute: pIC50
// pIC50 is dimensionless: -log10 of concentration (M)

Request: Given "CCc1cc(NC(=O)Nc2ccc(-c3cnc(Nc4cc(N5CCN(CCO)CC5)nc(C)n4)s3)cc2)no1" , report its pIC50 on PDGFR A (Homo sapiens).
Sequence (P16234 24-1089): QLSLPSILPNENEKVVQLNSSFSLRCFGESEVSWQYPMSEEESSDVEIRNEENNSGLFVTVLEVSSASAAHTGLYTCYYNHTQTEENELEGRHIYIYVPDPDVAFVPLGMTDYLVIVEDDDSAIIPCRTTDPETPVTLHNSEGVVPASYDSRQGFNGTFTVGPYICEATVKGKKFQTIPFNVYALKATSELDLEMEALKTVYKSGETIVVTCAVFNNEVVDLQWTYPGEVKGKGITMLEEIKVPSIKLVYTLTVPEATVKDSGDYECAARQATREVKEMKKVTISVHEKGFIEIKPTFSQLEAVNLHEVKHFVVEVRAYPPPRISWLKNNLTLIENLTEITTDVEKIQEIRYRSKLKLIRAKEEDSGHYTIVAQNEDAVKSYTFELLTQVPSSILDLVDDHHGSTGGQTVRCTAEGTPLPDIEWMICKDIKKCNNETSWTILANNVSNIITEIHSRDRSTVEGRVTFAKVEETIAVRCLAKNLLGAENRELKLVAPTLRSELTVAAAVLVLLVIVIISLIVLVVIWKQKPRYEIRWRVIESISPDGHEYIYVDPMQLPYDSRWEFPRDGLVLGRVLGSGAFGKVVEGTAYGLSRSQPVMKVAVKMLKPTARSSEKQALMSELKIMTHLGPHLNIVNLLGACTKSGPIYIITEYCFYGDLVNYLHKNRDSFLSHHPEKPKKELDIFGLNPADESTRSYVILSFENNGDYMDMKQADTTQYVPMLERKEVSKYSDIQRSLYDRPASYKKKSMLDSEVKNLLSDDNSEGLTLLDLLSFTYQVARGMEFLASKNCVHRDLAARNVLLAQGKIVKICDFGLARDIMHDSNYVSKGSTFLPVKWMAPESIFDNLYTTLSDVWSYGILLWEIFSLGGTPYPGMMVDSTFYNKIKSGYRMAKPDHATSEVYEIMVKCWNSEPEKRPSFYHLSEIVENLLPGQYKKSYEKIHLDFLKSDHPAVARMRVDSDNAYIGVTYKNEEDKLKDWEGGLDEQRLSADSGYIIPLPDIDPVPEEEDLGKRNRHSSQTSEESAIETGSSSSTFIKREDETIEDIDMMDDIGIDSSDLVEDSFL
Result: 8.05

====

# Test method notes: in vivo
# Experimental conditions: male, ICR, mouse, po, 10 mg/kg
Measured attribute: AUC(0-inf) (ng·h/mL)
Could you give me the number in ng·h/mL? Just the number is fine.

Request: Identify the reported AUC(0-inf) for the following entry. CCc1cc(NC(=O)Nc2ccc(-c3cnc(Nc4cc(N5CCN(CCF)CC5)nc(C)n4)s3)cc2)no1 [Compound 6]
Result: 7580

====

# Assay target: SRC (Homo sapiens, UniProt P12931)
# Sequence (P12931 whole entry): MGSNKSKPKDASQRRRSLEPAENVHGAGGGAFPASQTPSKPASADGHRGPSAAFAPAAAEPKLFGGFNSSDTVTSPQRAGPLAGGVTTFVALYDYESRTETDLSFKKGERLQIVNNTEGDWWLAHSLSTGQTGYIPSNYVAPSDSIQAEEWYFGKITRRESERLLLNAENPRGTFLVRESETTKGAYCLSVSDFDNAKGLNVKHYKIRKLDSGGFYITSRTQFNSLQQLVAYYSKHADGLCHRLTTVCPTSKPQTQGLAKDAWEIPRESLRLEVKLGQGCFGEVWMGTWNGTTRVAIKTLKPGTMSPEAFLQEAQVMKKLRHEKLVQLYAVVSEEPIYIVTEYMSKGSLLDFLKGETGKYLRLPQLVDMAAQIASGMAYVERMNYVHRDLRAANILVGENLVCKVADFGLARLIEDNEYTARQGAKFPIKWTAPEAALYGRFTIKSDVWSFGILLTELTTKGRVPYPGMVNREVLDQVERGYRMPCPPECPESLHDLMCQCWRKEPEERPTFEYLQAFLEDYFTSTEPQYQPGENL
# Test method notes: SelectScreen biochemical kinase profiling
# Assay type: binding
# Experimental conditions: read-out: IC50 value (number in the bracket)
Measured attribute: IC50 (nM)
Use nM as the unit, but write only the number.

Request: Answer with the recorded IC50 for the compound listed here: "CCc1cc(NC(=O)Nc2ccc(-c3cnc(Nc4cc(N5CCN(CCO)CC5)nc(C)n4)s3)cc2)no1"
Result: 6
